Biological target: UniProt Q13822
Experiment: Negative allosteric modulation activity against human ATX using FS-3 as substrate preincubated for 45 mins followed by substrate addition and measured every 30 mins by multi-mode microplate reader
Some compounds, each annotated with its measured IC50.
Express your answer in nM, writing the number without its unit.

INSERT INTO assay_data (chemical_structure, tested_target, parameter_measured, numeric_result) VALUES
  ('CCc1nc2c(C)cc(-c3ccc(CN4CCOCC4)cc3)cn2c1NC(=O)OCc1ccc(OC)c(Cl)c1', 'UniProt Q13822', 'IC50', 33.5);

Entry CCc1nc2c(C)cc(-c3ccc(CN4CCN(C)CC4)cc3)cn2c1NC(=O)OCc1ccc(F)c(F)c1 , IC50 reported as 154

Entry CCc1nc2c(C)cc(-c3ccc(CN4CCSCC4)cc3)cn2c1NC(=O)OCc1cc(Cl)cc(Cl)c1 , IC50 reported as 91

Entry CCc1nc2c(C)cc(-c3ccc(CN4CCN(CCO)CC4)cc3)cn2c1NC(=O)OCc1ccc(C(F)(F)F)cc1 , IC50 reported as 81
